FYI, the data here is from paper PMC2360547.

The entries below come with measured concentration at 28 day values attached.
# Procedure summary: Plasma concentrations by HPLC with fluorescence detection
# Type: in vivo, human
# Condition label: human, plasma, oral, 75 mg tid, 12 subjects, about 1 month of 75 mg tid; read-out: Plasma concentrations, mean
# output: bare number, implied unit µM

compound=CO[C@@H]1[C@H](N(C)C(=O)c2ccccc2)C[C@H]2O[C@]1(C)n1c3ccccc3c3c4c(c5c6ccccc6n2c5c31)C(=O)NC4 measurement_unit=µM test_result=2.45

Look up concentration at 28 day for this compound: CO[C@@H]1[C@H](N(C)C(=O)c2ccccc2)C[C@H]2O[C@]1(C)n1c3ccccc3c3c4c(c5c6ccccc6n2c5c31)C(=O)NC4O (single isomer, unassigned) [CGP52421 (e2)]
17.3

Look up concentration at 28 day for this compound: `CN(C(=O)c1ccccc1)[C@@H]1C[C@H]2O[C@@](C)([C@@H]1O)n1c3ccccc3c3c4c(c5c6ccccc6n2c5c31)C(=O)NC4`
5.36

----------
# Procedure summary: Plasma concentrations by HPLC with fluorescence detection
# Assay type: in vivo, human
# Condition label: human, plasma, oral, 75 mg tid, 12 subjects, about 1 month of 75 mg tid; read-out: Plasma concentrations, minimum
The entries below come with measured concentration at 28 day values attached.

Example cases with answers are listed next.
compound="CO[C@@H]1[C@H](N(C)C(=O)c2ccccc2)C[C@H]2O[C@]1(C)n1c3ccccc3c3c4c(c5c6ccccc6n2c5c31)C(=O)NC4O (single isomer, unassigned) [CGP52421 (e2)]" observable="concentration at 28 day" test_result="10800 nM"
compound="CO[C@@H]1[C@H](N(C)C(=O)c2ccccc2)C[C@H]2O[C@]1(C)n1c3ccccc3c3c4c(c5c6ccccc6n2c5c31)C(=O)NC4 [Midostaurin, N-benzoyl-staurosporine]" observable="concentration at 28 day" test_result="771 nM"

Attention now turns to another entry.
Look up concentration at 28 day for this compound: CN(C(=O)c1ccccc1)[C@@H]1C[C@H]2O[C@@](C)([C@@H]1O)n1c3ccccc3c3c4c(c5c6ccccc6n2c5c31)C(=O)NC4 [CGP 62221]
2470 nM

----------
# Procedure summary: Plasma concentrations by HPLC with fluorescence detection
# Format: in vivo, human
# Condition label: human, plasma, oral, 75 mg three times a day, calculated for median plasma concentration of 2342 nM and 99% protein binding; read-out: Free plasma concentration
Observable: concentration at 28 day (nM)
# output: bare number, implied unit nM

Look up concentration at 28 day for this compound: `CO[C@@H]1[C@H](N(C)C(=O)c2ccccc2)C[C@H]2O[C@]1(C)n1c3ccccc3c3c4c(c5c6ccccc6n2c5c31)C(=O)NC4`
23.4

----------
The entries below come with measured concentration at 28 day values attached.
# Procedure summary: Tumour tissue concentrations by HPLC with fluorescence detection
# Format: in vivo, human
# Condition label: human, tumour tissue, oral, 75 mg tid, tumour tissue, 10 subjects, about 1 month of 75 mg tid; read-out: Tissue concentrations, median
# output: bare number, implied unit nM

Example cases with answers are listed next.
compound="CO[C@@H]1[C@H](N(C)C(=O)c2ccccc2)C[C@H]2O[C@]1(C)n1c3ccccc3c3c4c(c5c6ccccc6n2c5c31)C(=O)N[C@H]4O [CGP52421]" observable="concentration at 28 day" test_result=1520
compound="CO[C@@H]1[C@H](N(C)C(=O)c2ccccc2)C[C@H]2O[C@]1(C)n1c3ccccc3c3c4c(c5c6ccccc6n2c5c31)C(=O)NC4 [Midostaurin, N-benzoyl-staurosporine]" observable="concentration at 28 day" test_result=593
compound="CN(C(=O)c1ccccc1)[C@@H]1C[C@H]2O[C@@](C)([C@@H]1O)n1c3ccccc3c3c4c(c5c6ccccc6n2c5c31)C(=O)NC4 [CGP 62221]" observable="concentration at 28 day" test_result=710

Attention now turns to another entry.
Look up concentration at 28 day for this compound: CO[C@@H]1[C@H](N(C)C(=O)c2ccccc2)C[C@H]2O[C@]1(C)n1c3ccccc3c3c4c(c5c6ccccc6n2c5c31)C(=O)NC4O (single isomer, unassigned) [CGP52421 (e2)]
1520
